Reported IC50 values for a set of compounds
# System: T-47D cells
# Assay notes: Inhibition of cell proliferation in T-47D cells (CCK-8)
# Format: cell-based
# Experimental context: Homo sapiens, T47D, 144 h, 6 days treatment, CCK-8 cell viability

The following compounds have reported results that may help.
>  <Compound>
Cn1c(=O)n(C2CCC(=O)NC2=O)c2cc3c(cc21)C1(CCN(C2CCN(c4ccc([C@@H]5c6ccc(O)cc6CC[C@@H]5c5ccccc5)cc4)CC2)CC1)CO3 (some centres unmarked) [ER-P-11]

>  <Assay system>
T-47D cells

>  <IC50>
0.0208 µM

$$$$
>  <Compound>
Cn1c(=O)n(C2CCC(=O)NC2=O)c2ccc3c(c21)OCC31CCN(CC2CCN(C(=O)C3CCN(c4ccc([C@@H]5c6ccc(O)cc6CC[C@@H]5c5ccccc5)cc4)CC3)CC2)CC1 (some centres unmarked) [ER-P-63]

>  <Assay system>
T-47D cells

>  <IC50>
0.00115 µM

$$$$

Q. Which value of IC50 has been reported for O=C1CC[C@H](NC(=O)c2ccc3c(c2F)OCC32CCN(C3CCC4(CC3)CCN(c3ccc([C@@H]5c6ccc(O)cc6CC[C@@H]5c5ccccc5)cc3)CC4)CC2)C(=O)N1 [ER-P-39] in the records?
A. 0.0142 µM

Q. Which value of IC50 has been reported for CN(CC(=O)N1CC2(CCC3(CC2)COc2c3ccc3c2CN(C2CCC(=O)NC2=O)C3=O)C1)C1CCC2(CC1)CN(c1ccc([C@@H]3c4ccc(O)cc4CC[C@@H]3c3ccccc3)cc1)C2 (some centres unmarked) [ER-P-72] in the records?
A. 0.00134 µM

Q. Which value of IC50 has been reported for CN(C(=O)CN1CCC2(CC1)COc1c2ccc(F)c1C(=O)N[C@H]1CCC(=O)NC1=O)C1CCC2(CC1)CN(c1ccc([C@@H]3c4ccc(O)cc4CC[C@@H]3c3ccccc3)cc1)C2 [ER-P-40] in the records?
A. 0.0284 µM

---

# Assay system: ERα (Homo sapiens)
# Sequence (P03372 1-595): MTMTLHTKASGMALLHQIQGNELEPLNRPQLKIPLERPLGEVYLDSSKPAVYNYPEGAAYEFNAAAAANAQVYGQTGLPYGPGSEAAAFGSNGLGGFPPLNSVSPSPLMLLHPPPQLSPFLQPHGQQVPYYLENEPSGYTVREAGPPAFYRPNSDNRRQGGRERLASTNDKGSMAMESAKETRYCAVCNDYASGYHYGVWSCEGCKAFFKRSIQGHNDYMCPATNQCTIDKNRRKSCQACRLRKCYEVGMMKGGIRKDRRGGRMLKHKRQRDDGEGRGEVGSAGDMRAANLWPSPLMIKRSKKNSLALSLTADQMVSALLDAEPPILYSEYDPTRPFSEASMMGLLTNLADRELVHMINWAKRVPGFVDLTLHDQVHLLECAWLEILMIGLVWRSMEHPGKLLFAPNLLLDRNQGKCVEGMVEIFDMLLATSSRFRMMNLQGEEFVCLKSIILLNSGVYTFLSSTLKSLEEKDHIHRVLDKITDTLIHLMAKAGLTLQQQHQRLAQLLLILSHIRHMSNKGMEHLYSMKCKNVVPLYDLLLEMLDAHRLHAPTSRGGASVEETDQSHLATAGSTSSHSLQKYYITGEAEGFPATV
# Assay notes: ERα degradation in MCF-7 cells (Western blot)
# Type: cell-based
# Parameters: host or cells: MCF-7
# Experimental context: 10nM, 4 hours
API: label(entry) gives yes (1) if the entry's Degradation rate of ERα in MCF-7 cells (%) is strictly smaller than 10%; on equality or larger values it gives no (0).

Below, 5 compounds whose answers are already recorded.
>  <Compound>
CN(c1ccc2c(c1)COC[C@H]1CN(CC3CCC(OC4CCN(c5ccc([C@@H]6c7ccc(O)cc7CC[C@@H]6c6ccccc6)cc5)CC4)CC3)CCN21)C1CCC(=O)NC1=O (stereo partly shown) [ER-P-53]

>  <Discrete label>
no (0)

$$$$
>  <Compound>
Cn1c(=O)n(C2CCC(=O)NC2=O)c2cc3c(cc21)C1(CCN(C[C@H]2CC[C@@H](OC4CCN(c5ccc([C@@H]6c7ccc(O)cc7CC[C@@H]6c6ccccc6)cc5)CC4)CC2)CC1)CO3 (stereo partly shown)

>  <Discrete label>
no (0)

$$$$
>  <Compound>
CN(c1ccc2c(c1)COC[C@H]1CN(CC3CCC(OC4CCN(c5ccc([C@@H]6c7ccc(O)cc7CC[C@@H]6c6ccccc6)cc5)CC4)CC3)CCN21)C1CCC(=O)NC1=O (stereo partly shown) [ER-P-52]

>  <Discrete label>
yes (1)

$$$$
>  <Compound>
CN(c1ccc2c(c1)OCC21CCN(C[C@H]2CC[C@@H](OC3CCN(c4ccc([C@@H]5c6ccc(O)cc6CC[C@@H]5c5ccccc5)cc4)CC3)CC2)CC1)C1CCC(=O)NC1=O (stereo partly shown)

>  <Discrete label>
no (0)

$$$$
>  <Compound>
C[C@@H]1Cc2cc(O)ccc2C(c2c(F)cc(N3CCC4(CCC(N5CCC6(CC5)COc5c6ccc6c5n(C)c(=O)n6C5CCC(=O)NC5=O)CC4)CC3)cc2F)N1CC(F)F (stereo partly shown)

>  <Discrete label>
no (0)

$$$$

Q. Would you kindly verify if Degradation rate of ERα in MCF-7 cells (%) of Cn1c(=O)n(C2CCC(=O)NC2=O)c2cc3c(cc21)C1(CCN(C2CCC4(CC2)CCN(c2ccc([C@@H]5c6ccc(O)cc6CC[C@@H]5c5ccccc5)cc2)CC4)CC1)CO3 (stereo partly shown) is strictly less than 10%?
A. no (0)
